B1: POU domain, class 4, transcription factor 3, residues 185 to 256; numbered along this chain, Q15319 (parent)
chain: RELEAFAERFKQRRIKLGVTQADVGAALANLKIPGVGSLSQSTICRFESLTLSHNNMIALKPVLQAWLEEAE

variants of: B1; test: abundance fitness (aPCA) (normalised: wild type 0, dead -1); higher = more abundant; growth selection in yeast, the domain comes from the species named; conditions: Homo sapiens
Note that class boundaries on abundance fitness are lower range: < -0.3; middle range: ≥ -0.3 and < -0.04; upper range: ≥ -0.04

G37H
upper range
F47N
lower range
L31F
upper range

[in] The entry to classify is L31V ; which class holds it?
[out] upper range

[in] The entry to classify is V24S ; which class holds it?
[out] lower range

[in] The entry to classify is K32V ; which class holds it?
[out] upper range

[in] The entry to classify is G35P ; which class holds it?
[out] middle range

[in] The entry to classify is S42K ; which class holds it?
[out] upper range

[in] The entry to classify is K61L ; which class holds it?
[out] middle range

[in] The entry to classify is F47S ; which class holds it?
[out] lower range

[in] The entry to classify is V24D ; which class holds it?
[out] lower range
